Reported growth values for the following compounds.
Test system: OVCAR-5 ovarian
assayProcedure: NCI-60 one-dose screen, 48 h (100 = growth as untreated, 0 = no growth, -100 = all killed)
appliedConditions: 10 µM unless noted
The panel holds about 83,000 compounds, 20% with a hit somewhere; the sample as a whole holds those more often.
quantity: growth (%)

INSERT INTO results (compound, measurement) VALUES
  ('O=C1OC(c2ccccc2)=N/C1=C\c1ccccc1', 105),
  ('NN1CCOC(c2ccccc2)C1 (configuration not stated)', 97.1),
  ('Oc1ccc(Cc2ccccc2Cl)c(O)c1', 97.3),
  ('COc1ccc2cc1Oc1ccc(cc1)C[C@H]1c3cc(c(OC)cc3CCN1C)Oc1c(OC)c(OC)cc3c1[C@H](C2)N(C)CC3', 72.3),
  ('ClCCOCCOc1ccc(C2CCCCC2)cc1', 95.4),
  ('Nc1ccc2c(O)cc(S(=O)(=O)O)cc2c1', 103),
  ('COc1ccc(N/C=C/C2=[N+](C)c3ccccc3C2(C)C)c(OC)c1', 106);

---

Reported growth values for the following compounds.
Test system: T-47D breast
assayProcedure: NCI-60 one-dose screen, 48 h (100 = growth as untreated, 0 = no growth, -100 = all killed)
appliedConditions: 10 µM unless noted
Compounds without any hit were thinned out: in the full panel of roughly 83,000, 20% have a hit.
quantity: growth (%)

INSERT INTO assay_data (compound, measurement) VALUES
  ('CC(C)C(C)(C)c1ccc(O)cc1', 101),
  ('ClCCOCCOc1ccc(C2CCCCC2)cc1', 96.7),
  ('Oc1ccc(Cc2ccccc2Cl)c(O)c1', 83.9),
  ('CCCCNc1ccc(Nc2ccccc2)cc1', 34),
  ('CC1=C/C(O)CC(=O)Cc2nc(co2)C(=O)N2CCC=C2C(=O)OC(C(C)C)C(C)/C=C\C(=O)NC/C=C\1 (configuration not stated)', 89.4),
  ('CCCCCCCCCCNC(=O)CI', -21.1),
  ('C#CCOC(=O)Nc1ccccc1', 109);

---

Tested on: ACHN renal
assayProcedure: NCI-60 one-dose screen, 48 h (100 = growth as untreated, 0 = no growth, -100 = all killed)
appliedConditions: 10 µM unless noted
The panel holds about 83,000 compounds, 20% with a hit somewhere; the sample as a whole holds those more often.
Reported growth values for the following compounds.
quantity: growth (%)

INSERT INTO measurements (compound, unitabbrev, measurement) VALUES
  ('COc1cc(C(O)C2C(=O)OCC2C2(c3ccc4c(c3)OCO4)SCCCS2)cc(OC)c1OC (centres undefined)', '%', 103),
  ('O=C(Cc1ccccc1)c1ccc(O)c(Cl)c1', '%', 37.6),
  ('c1ccc(CNCCNCc2ccccc2)cc1', '%', 99.7),
  ('O=C(/C=C/c1ccccc1)c1ccccc1', '%', 107);

---

System: IGROV1 ovarian
assayProcedure: NCI-60 one-dose screen, 48 h
appliedConditions: 10 µM unless noted
About 83,000 compounds went through this panel and 20% of them were active in at least one assay; those are over-represented in the sample as a whole. Activity calls are given as the source filed them. Rule for the calls: active = growth percent below 10; inactive = the rest.
Outcome codes: active, inactive

INSERT INTO measurements (molecule, grouplabel) VALUES
  ('NC(=O)NCCCC(N)C(=O)O (stereo unspecified)', 'inactive'),
  ('ClCCOCCOc1ccc(C2CCCCC2)cc1', 'inactive'),
  ('CCCCCCCCCCNC(=O)CI', 'active'),
  ('O=C1OC(C(O)C(O)CO)C(O)=C1O (stereo unspecified)', 'inactive'),
  ('CC(C)NC(=O)N/C=C(\C#N)C(N)=O', 'inactive'),
  ('COc1ccc(N/C=C/C2=[N+](C)c3ccccc3C2(C)C)c(OC)c1', 'inactive'),
  ('CC1CCC(C(C)C)C(NNC(N)=O)C1 (stereo unspecified)', 'inactive'),
  ('Cc1cc(-c2cc(C)c(O)c(C)c2)cc(C)c1O', 'inactive'),
  ('Cc1cc(-c2ccc(N=Nc3ccc4c(S(=O)(=O)O)cc(S(=O)(=O)O)c(N)c4c3O)c(C)c2)ccc1N=Nc1ccc2c(S(=O)(=O)O)cc(S(=O)(=O)O)c(N)c2c1O', 'inactive'),
  ('Cc1ccc(=O)[nH]n1', 'inactive'),
  ('Brc1ccc(SSc2ccc(Br)cc2)cc1', 'inactive');

---

Tested on: HT29 colon
assayProcedure: NCI-60 one-dose screen, 48 h (100 = growth as untreated, 0 = no growth, -100 = all killed)
appliedConditions: 10 µM unless noted
This is part of a sample that, as a whole, favours compounds with a hit. Of some 83,000 tested, about 20% had one in any assay.
quantity: growth (%)

INSERT INTO assay_data (compound, unitabbrev, measurement) VALUES
  ('OCC1OC(O)C(O)C(O)C1O (configuration not stated)', '%', 92.5),
  ('ClCCOCCOc1ccc(C2CCCCC2)cc1', '%', 106),
  ('OCCN1CCCCCCC1', '%', 106),
  ('NC(=O)NCCCC(N)C(=O)O (configuration not stated)', '%', 101),
  ('CCCCOC(=O)/C=C\C(=O)NC(N)=O', '%', 97),
  ('CC(=O)OC(C)C(=O)NCC(C)O (configuration not stated)', '%', 110),
  ('COc1cc(C(O)C2C(=O)OCC2C2(c3ccc4c(c3)OCO4)SCCCS2)cc(OC)c1OC (configuration not stated)', '%', 102);

---

Test system: IGROV1 ovarian
assayProcedure: NCI-60 one-dose screen, 48 h (100 = growth as untreated, 0 = no growth, -100 = all killed)
appliedConditions: 10 µM unless noted
Procedure: Growth inhibition of the IGROV1 human tumor cell line is measured as a screen for anti-cancer activity. Cells are grown in 96 well plates and exposed to the test compound for 48 hours. Compounds are tested at a single concentration, which is 10^-5 M for most compounds. The reported endpoint is percent growth (GI% or GIPRCNT), where numbers from 0 - 100% represent growth inhibition, and numbers from -100% - 0 represent cell death. For example, a value of 40 represents 60% growth inhibition. […]
Compounds without any hit were thinned out: in the full panel of roughly 83,000, 20% have a hit.
quantity: growth (%)

INSERT INTO assay_data (compound, assaysystem, quantity, measurement) VALUES
  ('CC(=O)OC(C)C(=O)NCC(C)O (stereo not drawn)', 'IGROV1 ovarian', 'growth', 114),
  ('Cc1ccc(S(=O)(=O)c2ccccc2)cc1', 'IGROV1 ovarian', 'growth', 45.4),
  ('O=C(/C=C/c1ccccc1)c1ccccc1', 'IGROV1 ovarian', 'growth', 84.7),
  ('Oc1ccc(Cc2ccccc2Cl)c(O)c1', 'IGROV1 ovarian', 'growth', 94.7),
  ('C/C(=C\c1ccccc1)c1ccccn1', 'IGROV1 ovarian', 'growth', 109),
  ('OCC1OC(O)C(O)C(O)C1O (stereo not drawn)', 'IGROV1 ovarian', 'growth', 126),
  ('CCc1cc(C)cc(O)c1', 'IGROV1 ovarian', 'growth', 92),
  ('CN(C)CC1CCCCCC(CN(C)C)C1=O (stereo not drawn)', 'IGROV1 ovarian', 'growth', 34.2);

---

System: MOLT-4 leukemia
assayProcedure: NCI-60 one-dose screen, 48 h (100 = growth as untreated, 0 = no growth, -100 = all killed)
appliedConditions: 10 µM unless noted
The panel holds about 83,000 compounds, 20% with a hit somewhere; the sample as a whole holds those more often.
Reported growth values for the following compounds.
quantity: growth (%)

INSERT INTO assay_data (compound, assaysystem, unitabbrev, measurement) VALUES
  ('O=[N+]([O-])c1cccc(SSc2cccc([N+](=O)[O-])c2)c1', 'MOLT-4 leukemia', '%', 82.1),
  ('O=c1n(CC2CO2)c(=O)n(CC2CO2)c(=O)n1CC1CO1 (centres undefined)', 'MOLT-4 leukemia', '%', 19.2),
  ('CC(C)C(C)(C)c1ccc(O)cc1', 'MOLT-4 leukemia', '%', 106),
  ('NN1CCOC(c2ccccc2)C1 (centres undefined)', 'MOLT-4 leukemia', '%', 76.1),
  ('Oc1ccc(Cc2ccccc2Cl)c(O)c1', 'MOLT-4 leukemia', '%', 88.7),
  ('COc1ccc2cc1Oc1ccc(cc1)C[C@H]1c3cc(c(OC)cc3CCN1C)Oc1c(OC)c(OC)cc3c1[C@H](C2)N(C)CC3', 'MOLT-4 leukemia', '%', 28.2),
  ('c1ccc(CNCCNCc2ccccc2)cc1', 'MOLT-4 leukemia', '%', 105),
  ('COc1ccc(N/C=C/C2=[N+](C)c3ccccc3C2(C)C)c(OC)c1', 'MOLT-4 leukemia', '%', 104),
  ('CN(C)CC1CCCCCC(CN(C)C)C1=O (centres undefined)', 'MOLT-4 leukemia', '%', 20.7),
  ('O=C1OC(c2ccccc2)=N/C1=C\c1ccccc1', 'MOLT-4 leukemia', '%', 105),
  ('O=C(Cc1ccccc1)c1ccc(O)c(Cl)c1', 'MOLT-4 leukemia', '%', 22.6),
  ('NC(=O)NCCCC(N)C(=O)O (centres undefined)', 'MOLT-4 leukemia', '%', 88.7),
  ('Cc1cc(-c2cc(C)c(O)c(C)c2)cc(C)c1O', 'MOLT-4 leukemia', '%', 74.9),
  ('CC1CCC2(OC1)OC1CC3C4CC=C5CC(O)CCC5(C)C4CCC3(C)C1C2C (centres undefined)', 'MOLT-4 leukemia', '%', 102),
  ('c1ccc(-c2nc3ccccc3s2)cc1', 'MOLT-4 leukemia', '%', 103),
  ('O=CN1CCCCC1', 'MOLT-4 leukemia', '%', 121),
  ('CC1(C)COC(=S)N1', 'MOLT-4 leukemia', '%', 108),
  ('Brc1ccc(SSc2ccc(Br)cc2)cc1', 'MOLT-4 leukemia', '%', 4.43),
  ('CC1=C/C(O)CC(=O)Cc2nc(co2)C(=O)N2CCC=C2C(=O)OC(C(C)C)C(C)/C=C\C(=O)NC/C=C\1 (centres undefined)', 'MOLT-4 leukemia', '%', 77.4);
